Target: PDZ domain of PICK1 (Rattus norvegicus, UniProt Q9EP80)
Construct: The entire coding region of rat PICK1 (residues 2-416); GST (N, cleaved yes); made in house; host or cells: E. coli BL21(DE3) pLysS
Sequence (Q9EP80 2-416): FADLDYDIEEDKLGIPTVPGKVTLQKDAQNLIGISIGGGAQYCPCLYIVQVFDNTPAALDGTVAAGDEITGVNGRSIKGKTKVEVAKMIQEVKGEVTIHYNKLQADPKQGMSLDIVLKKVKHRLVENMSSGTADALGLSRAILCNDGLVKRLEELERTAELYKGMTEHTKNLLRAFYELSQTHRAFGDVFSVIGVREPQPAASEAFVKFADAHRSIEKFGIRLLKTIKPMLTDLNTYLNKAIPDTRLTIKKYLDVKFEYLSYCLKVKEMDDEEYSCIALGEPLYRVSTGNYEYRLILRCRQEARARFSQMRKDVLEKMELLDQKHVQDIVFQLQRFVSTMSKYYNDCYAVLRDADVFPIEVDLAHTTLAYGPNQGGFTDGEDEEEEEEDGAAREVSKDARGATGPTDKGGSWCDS
Assay: Fluorescence polarization competition binding to PICK1 (Oregon Green-labeled DAT peptide tracer)
Conditions: competition with DAT13 OrG tracer 40 nM, fixed subsaturating PICK1, 15 min incubation; means of three independent experiments; read-out: Ki (μM) [SE interval]

# compoundSmiles, unitSymbol, Ki
measured = [
    ("CCOC(=O)NC(=O)/C(C#N)=C\\c1ccc(Cl)c(Cl)c1", "µM", 40),
    ("CC(C)(C)c1ccc(O)c(/N=C/c2cc(N=Nc3ccc(Cl)cc3)ccc2O)c1", "µM", 19.1),
    ("CCOc1cc(Cl)c(Cl)c(C=O)c1O", "µM", 67),
    ("O=C1C(=O)c2cc([N+](=O)[O-])ccc2-c2ccccc21", "µM", 4.4),
    ("CCOC(=O)c1ccc(-c2ccc(/C=C3/C(=O)NN(c4ccc(C)c(Cl)c4)C3=O)o2)cc1", "µM", 13.7),
    ("O=C1C(=Cc2cc(Br)ccc2OCc2ccccc2)C(=O)c2ccccc21", "µM", 7.7),
]
